Target: hM4 receptors (Homo sapiens)
Sequence (P08173 whole entry): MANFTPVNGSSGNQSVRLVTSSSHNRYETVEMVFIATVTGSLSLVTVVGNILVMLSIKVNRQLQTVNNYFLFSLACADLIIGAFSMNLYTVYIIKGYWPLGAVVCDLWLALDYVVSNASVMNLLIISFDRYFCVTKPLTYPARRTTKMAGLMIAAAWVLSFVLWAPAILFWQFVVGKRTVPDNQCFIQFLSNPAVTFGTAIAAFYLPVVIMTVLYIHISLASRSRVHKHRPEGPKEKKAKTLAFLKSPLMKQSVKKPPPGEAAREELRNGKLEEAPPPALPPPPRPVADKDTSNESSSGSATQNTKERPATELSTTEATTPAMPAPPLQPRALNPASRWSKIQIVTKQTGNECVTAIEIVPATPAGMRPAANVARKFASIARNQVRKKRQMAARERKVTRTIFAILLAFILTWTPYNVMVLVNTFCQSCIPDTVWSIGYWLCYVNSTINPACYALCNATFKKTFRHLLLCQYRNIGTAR
Experiment: Human M4 PAM pERK assay
Settings: CHO cells expressing hM4; EC20 of acetylcholine (10 nM final); TR-FRET
Parameter: EC50

These solved cases illustrate the format of a correct answer.
>>> print(df.to_string())
                                   compound  parameter  recorded_value
0  COc1nc(C#N)nc2c1C(C)N(C(=O)CC1CN(c3ccnc(C(F)(F)F)c3)C1C)C2 (single isomer, unassigned) [Compound I-36]       EC50        ≤ 100 nM
1  COc1nc(C)nc2c1CN(C(=O)CC1CN(c3cccnc3)C1)C2       EC50   100 to 500 nM
2  COc1nc(C)nc2c1C(C)N(C(=O)CC1CN(c3cncnc3)C1)C2 (single isomer, unassigned) [Compound I-59]       EC50        ≤ 100 nM
3  COc1nc(C#N)nc2c1C(C)N(C(=O)CC1CN(c3ccc(C#N)cc3)C1)C2 (single isomer, unassigned)       EC50        ≤ 100 nM
4  CNc1nc(C)nc2c1CN(C(=O)CC1CN(c3cccnc3)C1)C2       EC50  500 to 2000 nM

Record EC50 for all entries; do not skip any.
1. COc1nc2c(c(OC)n1)C(C)N(C(=O)CC1CN(c3ccnc(C(F)(F)F)c3)C1)C2 (single isomer, unassigned) [Compound I-68]
2. COc1nc(C#N)nc2c1C(C)N(C(=O)CC1CN(c3ccnc(C(F)(F)F)c3)C1)C2 (single isomer, unassigned) [Compound I-6]
3. COc1nc2c(c(OC)n1)CN(C(=O)CC1CN(c3ccnc(C(F)(F)F)c3)C1)C2
4. COc1nc(C)nc2c1C(C)N(C(=O)CC1CN(c3cccc(C#N)c3)C1)C2 (single isomer, unassigned) [Compound I-55]
5. COc1nc(C#N)nc2c1C(C)N(C(=O)CC1CN(c3ccnc(OC(F)F)c3)C1)C2 (single isomer, unassigned)
6. COc1nc(C#N)nc2c1C(C)N(C(=O)CC1CN(c3cccc(F)c3F)C1)C2 (single isomer, unassigned) [Compound I-19]
7. COc1nc(C#N)nc2c1C(C)N(C(=O)CC1CN(c3cccc(C(F)(F)F)c3)C1)C2 (single isomer, unassigned) [Compound I-15]

Result:
1: 100 to 500 nM; 2: ≤ 100 nM; 3: 100 to 500 nM; 4: 500 to 2000 nM; 5: ≤ 100 nM; 6: 100 to 500 nM; 7: ≥ 2000 nM

----------
Answer each item with its documented EC50.
Target: rM4 receptors (Rattus norvegicus)
Construct: expressed in transfected cells; host or cells: CHO cells
Test: Rat M4 PAM pERK assay
Assay type: cell-based
Settings: CHO cells expressing rM4; EC20 of acetylcholine (10 nM final); TR-FRET

>>> df
                                   molecule                        test_system  recorded_value
0  COc1nc2c(c(OC)n1)C(C)N(C(=O)CC1CN(c3ccnc(C(F)(F)F)c3)C1)C2 (racemic) [Compound I-67]  rM4 receptors (Rattus norvegicus)  500 to 2000 nM
1  COc1nc(C#N)nc2c1C(C)N(C(=O)CC1CN(c3ccc(C4CC4)nc3)C1)C2 (single isomer, unassigned) [Compound I-32]  rM4 receptors (Rattus norvegicus)       ≥ 2000 nM
2  COc1nc(C)nc2c1CN(C(=O)CC1CN(c3ccc(C(F)(F)F)nc3)C1)C2  rM4 receptors (Rattus norvegicus)  500 to 2000 nM
3  COc1nc(C#N)nc2c1C(C)N(C(=O)CC1CN(c3ccnc(C(F)(F)F)c3)C1C)C2 (single isomer, unassigned) [Compound I-38]  rM4 receptors (Rattus norvegicus)  500 to 2000 nM
4  COc1nc2c(c(OC)n1)C(C)N(C(=O)CC1CN(c3ccnc(C(F)(F)F)c3)C1)C2 (single isomer, unassigned) [Compound I-69]  rM4 receptors (Rattus norvegicus)       ≥ 2000 nM

Request: Param item = COc1nc(C#N)nc2c1C(C)N(C(=O)CC1CN(c3ccnc(OC4CC4)c3)C1)C2 (single isomer, unassigned) [Compound I-13] ; retrieve measured EC50.
Result: ≥ 2000 nM

----------
Task for the reader: assign each of the following compounds its reported pEC50.
Target: hM4 receptors (Homo sapiens)
Assay: Human M4 PAM pERK assay
Details: CHO cells expressing hM4; EC20 of acetylcholine (10 nM final); TR-FRET
pEC50: −log10 of the molar value.

                                   compound                   test_system  recorded_value
0  COc1nc(C#N)nc2c1C(C)N(C(=O)CC1CN(c3ccnc(C(F)(F)F)c3)C1)C2 (single isomer, unassigned) [Compound I-5]  hM4 receptors (Homo sapiens)          ≤ 5.70
1  COc1nc(C#N)nc2c1C(C)N(C(=O)CC1CN(c3ccnc(OC4CC4)c3)C1)C2 (single isomer, unassigned) [Compound I-14]  hM4 receptors (Homo sapiens)          ≥ 7.00
2  COc1nc(C)nc2c1CN(C(=O)CC1(F)CN(c3ccnc(C(F)(F)F)c3)C1)C2  hM4 receptors (Homo sapiens)          ≤ 5.70
3  COc1nc(C#N)nc2c1C(C)N(C(=O)CC1CN(c3ccc(C4CC4)nc3)C1)C2 (single isomer, unassigned) [Compound I-33]  hM4 receptors (Homo sapiens)          ≥ 7.00
4  COc1nc(C)nc2c1CN(C(=O)CC1CN(c3ccnc(C(F)(F)F)c3)C1)C2C (single isomer, unassigned) [Compound I-62]  hM4 receptors (Homo sapiens)    6.30 to 7.00
5  Cc1nc2c(c(OC3CC3)n1)CN(C(=O)CC1CN(c3cccnc3)C1)C2  hM4 receptors (Homo sapiens)    5.70 to 6.30
6  COc1nc(C#N)nc2c1C(C)N(C(=O)CC1CN(c3ccnc(C4CC4)c3)C1)C2 (single isomer, unassigned) [Compound I-11]  hM4 receptors (Homo sapiens)          ≤ 5.70
7  COc1nc(C(F)(F)F)nc2c1CN(C(=O)CC1CN(c3cccnc3)C1)C2  hM4 receptors (Homo sapiens)    6.30 to 7.00
8  Cc1nc2c(c(OC(C)C)n1)CN(C(=O)CC1CN(c3ccnc(C(F)(F)F)c3)C1)C2  hM4 receptors (Homo sapiens)          ≤ 5.70
9  COc1nc(C#N)nc2c1C(C)N(C(=O)CC1CN(c3cc(F)cc(F)c3)C1)C2 (single isomer, unassigned) [Compound I-10]  hM4 receptors (Homo sapiens)          ≤ 5.70

For each of the compounds below, state pEC50.
1. COc1nc(C#N)nc2c1C(C)N(C(=O)CC1CN(c3cccc(C(F)(F)F)c3)C1)C2 (single isomer, unassigned) [Compound I-16]
2. COc1nc(C#N)nc2c1C(C)N(C(=O)CC1CN(c3ccnc(C(F)(F)F)c3)C1C)C2 (single isomer, unassigned) [Compound I-37]
3. COc1nc(C#N)nc2c1C(C)N(C(=O)CC1C(C)N(c3ccnc(C(F)(F)F)c3)C1C)C2 (centres unmarked)
4. COc1nc(C)nc2c1C(C)N(C(=O)CC1CN(c3ccc(C#N)cc3)C1)C2 (single isomer, unassigned) [Compound I-56]

Result:
1. 6.30 to 7.00
2. ≥ 7.00
3. 5.70 to 6.30
4. ≥ 7.00

----------
Target: rM4 receptors (Rattus norvegicus, UniProt P08485)
Sequence (P08485 1-478): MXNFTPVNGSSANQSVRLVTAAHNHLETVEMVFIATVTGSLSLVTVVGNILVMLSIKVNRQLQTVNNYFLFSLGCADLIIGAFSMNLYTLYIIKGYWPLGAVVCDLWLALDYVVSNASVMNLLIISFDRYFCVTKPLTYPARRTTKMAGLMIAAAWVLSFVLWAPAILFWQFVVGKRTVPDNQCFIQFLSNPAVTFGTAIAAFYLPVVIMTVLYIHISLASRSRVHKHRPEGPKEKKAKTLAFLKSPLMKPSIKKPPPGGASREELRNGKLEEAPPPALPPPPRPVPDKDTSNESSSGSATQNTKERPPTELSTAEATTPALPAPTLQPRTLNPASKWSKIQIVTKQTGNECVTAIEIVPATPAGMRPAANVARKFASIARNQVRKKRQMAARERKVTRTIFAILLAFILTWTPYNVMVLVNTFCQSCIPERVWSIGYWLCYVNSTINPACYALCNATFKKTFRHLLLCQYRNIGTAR
Experiment: Rat M4 PAM pERK assay
Conditions: CHO cells expressing rM4; EC20 of acetylcholine (10 nM final); TR-FRET
pEC50: −log10 of the molar value.
Parameter: pEC50

                                   molecule  recorded_value
0  CCOc1nc(C)nc2c1CN(C(=O)CC1CN(c3ccnc(C(F)(F)F)c3)C1)C2          ≤ 5.70
1  COc1nc(C#N)nc2c1C(C)N(C(=O)CC1CN(c3ccnc(OC4CC4)c3)C1)C2 (single isomer, unassigned) [Compound I-14]    5.70 to 6.30
2  COc1nc(C#N)nc2c1C(C)N(C(=O)CC1CN(c3ccc(C4CC4)nc3)C1)C2 (single isomer, unassigned) [Compound I-33]    6.30 to 7.00
3  Cc1nc2c(c(OCC3CC3)n1)CN(C(=O)CC1CN(c3ccnc(C(F)(F)F)c3)C1)C2          ≤ 5.70
4  COc1nc(C)nc2c1C(C)N(C(=O)CC1CN(c3ccnc(C(F)(F)F)c3)C1)C2 (single isomer, unassigned) [Compound I-53]          ≤ 5.70

Here are 2 molecules. What values of pEC50 were reported for them?
1. COc1nc(C#N)nc2c1C(C)N(C(=O)CC1CN(c3cccc(F)c3F)C1)C2 (single isomer, unassigned) [Compound I-20]
2. COc1nc(C#N)nc2c1C(C)N(C(=O)CC1CN(c3ccnc(C(F)(F)F)c3)C1C)C2 (single isomer, unassigned) [Compound I-37]

Result:
["≤ 5.70", "6.30 to 7.00"]

Recorded values, source patent US20260209234A1.
